# System: MS2 coat protein
# assayComment: apparent KD of MS2 coat protein; designed switch direction (-1 OFF switch, 1 ON switch): -1; higher = weaker reporter binding
# appliedConditions: input ligand: none
Recorded apparent KD of MS2 coat protein by entry
Your answer is read as nM, so omit the unit and give the number.

{"columns": ["macromoleculeSequence", "target", "dataValue"],
 "data": [
  ["GCCCGGGCAGGAUAUACAAUGAUCGUGAGAAAUCGUGAUCGACAUGAGGAUCACCCAUGUAGAAGGGCCCGGGC [-34.5, -32.3 kcal, A 28% 2] (Eterna round: R97, puzzle: Exclusion 2)", "MS2 coat protein", 50.5],
  ["AGUGUGAGGCAGGAUAUGCUAUAUGUACGUAAUGCAGAAGGGUCUACAUGAGGAUCACCCAUGUGUGCGGUUGA [Ex6 #8] (Eterna round: R97, puzzle: Exclusion 6)", "MS2 coat protein", 289]
]}

## Input So what does the record say about apparent KD of MS2 coat protein for ACUGGAGCAGGAUAUACAUUCGUGCUUCGGCACGUAAGAUCACAUGAGGAUCACCCAUGUAGAAGGGCUCCAGU [E2/5-D1] (Eterna round: R97, puzzle: Exclusion 2) ?
## Output 122

## Input Then this sequence: UUCCGACAUGAGGAUCACCCAUGUAAGGAUAUGCACUAGAGGACAAACCCUCUUAACGGCAGAAGGUGCAGGGA [Solaleisra] (Eterna round: R97, puzzle: Exclusion 1)
## Output 18

## Input Then this sequence: AGGUUGGCGUGAGGAUAUUGGAAAGGAAGUGUACAAGAAGGUACGGACCUAAAACAUGAGGAUCACCCAUGUGGUCCUUAUGCC [PowerStrip EXNG 1.26] (Eterna round: R96, puzzle: Exclusion NG 1)
## Output 19.6

Every entry's value here was drawn from the supplement of paper PMC9170038.
